MEASUREMENT PROTOCOL: DRUGMATRIX: Glutamate, NMDA, Phencyclidine radioligand binding (ligand: [3H] TCP)
Format: cell membranes, Rattus norvegicus, Wistar, Cerebral cortex, Membrane
TEST SETTINGS: Not Active = under 50% inhibition at 10 µM; read-out: IC50
pIC50: −log10 of the molar value.
MEASUREMENT TYPE: pIC50

• CNC1(c2ccccc2Cl)CCCCC1=O (stereo unspecified) = 6.00

###

ASSAY TARGET: Adenosine receptor A3 (Homo sapiens, UniProt P0DMS8); also: in other assays of this panel Not Active means under 50% inhibition at 10 µM;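 also: radioligand binding assay with AB-MECA serving as the labeled ligand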
Sequence (P0DMS8 whole entry): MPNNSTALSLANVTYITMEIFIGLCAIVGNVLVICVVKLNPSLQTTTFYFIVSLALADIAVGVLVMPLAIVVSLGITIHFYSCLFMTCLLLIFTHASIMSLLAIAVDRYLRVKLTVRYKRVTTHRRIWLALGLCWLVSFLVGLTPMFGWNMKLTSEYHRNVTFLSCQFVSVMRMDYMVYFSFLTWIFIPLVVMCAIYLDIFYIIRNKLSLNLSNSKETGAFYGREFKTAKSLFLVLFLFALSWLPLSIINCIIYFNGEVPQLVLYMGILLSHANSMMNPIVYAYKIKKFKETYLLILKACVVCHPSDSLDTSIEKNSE
Type: cell membranes, CHO-K1, Membrane
TEST SETTINGS: cho-k1; read-out: IC50
MEASUREMENT TYPE: IC50

* AURANOFIN | 1.69 µM

This collection of values is drawn from ChEMBL document CHEMBL1909046.
